Test system: NCI-H1793
Experiment: relative viability (nuclei count vs DMSO), 5 days (fraction); higher = more cells survive
Conditions: first compound 0.04 µM
measurement.kind: relative viability
Reply briefly: the number, and no unit.

What does the data say about its relative viability? Entry: C[C@@H]1CN(CC(=O)Nc2ccc3c(c2)Cc2cccc(-c4cc(=O)cc(N5CCOCC5)o4)c2S3)C[C@H](C)O1 + COc1cccc2cc(-c3nc([C@H]4CC[C@H](C(=O)O)CC4)n4ncnc(N)c34)[nH]c12 [OSI-027] (partner 0.5 µM)
0.256

Given Clc1ccc(Nc2nnc(Cc3ccncc3)c3ccccc23)cc1 [Vatalanib] + Cc1nc(NC(=O)N2CCC[C@H]2C(N)=O)sc1-c1ccnc(C(C)(C)C(F)(F)F)c1 [Alpelisib] (partner 2 µM) , state its recorded relative viability.
0.554

// query relative viability value for entry C[C@@H]1CN(CC(=O)Nc2ccc3c(c2)Cc2cccc(-c4cc(=O)cc(N5CCOCC5)o4)c2S3)C[C@H](C)O1 + CC1(C)CCC(c2ccc(Cl)cc2)=C(CN2CCN(c3ccc(C(=O)NS(=O)(=O)c4ccc(N[C@H](CCN5CCOCC5)CSc5ccccc5)c(S(=O)(=O)C(F)(F)F)c4)cc3)CC2)C1 [Navitoclax] (partner 0.5 µM)
0.495

Given Clc1ccc(Nc2nnc(Cc3ccncc3)c3ccccc23)cc1 [Vatalanib] + Cc1cc(Nc2cc(N3CCN(C)CC3)nc(Sc3ccc(NC(=O)C4CC4)cc3)n2)n[nH]1 [Tozasertib] (partner 0.1 µM) , state its recorded relative viability.
0.342

----------
System: NCI-H460
Test: relative viability (nuclei count vs DMSO), 5 days (fraction); higher = more cells survive
Details: first compound 0.1265 µM
measurement.kind: relative viability
Field format: numeric only.

# value lookup — system NCI-H460, readout relative viability, item Clc1ccc(Nc2nnc(Cc3ccncc3)c3ccccc23)cc1 [Vatalanib] + N=C(N)NC(=N)NCCc1ccccc1 [Phenformin] (partner 250 µM)
0.539

Short answer please: relative viability, NCI-H460, entry Clc1ccc(Nc2nnc(Cc3ccncc3)c3ccccc23)cc1 [Vatalanib] + CS(=O)(=O)CCNCc1ccc(-c2ccc3ncnc(Nc4ccc(OCc5cccc(F)c5)c(Cl)c4)c3c2)o1 [Lapatinib] (partner 2 µM)
0.848

Checklist item: relative viability tested on NCI-H460, entry Clc1ccc(Nc2nnc(Cc3ccncc3)c3ccccc23)cc1 [Vatalanib] + CC1(C)CCC(c2ccc(Cl)cc2)=C(CN2CCN(c3ccc(C(=O)NS(=O)(=O)c4ccc(N[C@H](CCN5CCOCC5)CSc5ccccc5)c(S(=O)(=O)C(F)(F)F)c4)cc3)CC2)C1 [Navitoclax] (partner 0.5 µM) , value?
1.09

Please provide the recorded relative viability for C[C@@H]1CN(CC(=O)Nc2ccc3c(c2)Cc2cccc(-c4cc(=O)cc(N5CCOCC5)o4)c2S3)C[C@H](C)O1 + CC1(C)CCC(c2ccc(Cl)cc2)=C(CN2CCN(c3ccc(C(=O)NS(=O)(=O)c4ccc(N[C@H](CCN5CCOCC5)CSc5ccccc5)c(S(=O)(=O)C(F)(F)F)c4)cc3)CC2)C1 [Navitoclax] (partner 0.5 µM) , tested on NCI-H460.
1.17

Given the entry Clc1ccc(Nc2nnc(Cc3ccncc3)c3ccccc23)cc1 [Vatalanib] + O=C(CCCCCCC(=O)Nc1ccccc1)NO [Vorinostat] (partner 1 µM) , what relative viability was observed with NCI-H460?
0.636

What is its relative viability for NCI-H460? Entry: COc1cc(N2CCC(C(N)=O)CC2)ccc1Nc1nc(N)c(Cl)c(Nc2ccccc2S(=O)(=O)C(C)C)n1 [HG-5-88-01] + CS(=O)(=O)N1CCN(Cc2cc3nc(-c4cccc5[nH]ncc45)nc(N4CCOCC4)c3s2)CC1 [Pictilisib] (partner 1 µM)
0.296

Can you look up relative viability on NCI-H460 for COc1cc(N2CCC(C(N)=O)CC2)ccc1Nc1nc(N)c(Cl)c(Nc2ccccc2S(=O)(=O)C(C)C)n1 [HG-5-88-01] + Nc1ncn([C@H]2C[C@H](O)[C@@H](CO)O2)c(=O)n1 [Decitabine] (partner 2 µM) ?
0.493

Please tell me: relative viability of Clc1ccc(Nc2nnc(Cc3ccncc3)c3ccccc23)cc1 [Vatalanib] + CCNC(=O)c1noc(-c2cc(C(C)C)c(O)cc2O)c1-c1ccc(CN2CCOCC2)cc1 [Luminespib] (partner 0.01 µM) , system NCI-H460?
0.0276

Could you share what relative viability was measured for COc1cc(N2CCC(C(N)=O)CC2)ccc1Nc1nc(N)c(Cl)c(Nc2ccccc2S(=O)(=O)C(C)C)n1 [HG-5-88-01] + CC1(C)CCC(c2ccc(Cl)cc2)=C(CN2CCN(c3ccc(C(=O)NS(=O)(=O)c4ccc(N[C@H](CCN5CCOCC5)CSc5ccccc5)c(S(=O)(=O)C(F)(F)F)c4)cc3)CC2)C1 [Navitoclax] (partner 0.5 µM) , tested on NCI-H460?
1.12

Please state recorded relative viability (tested on NCI-H460) of Clc1ccc(Nc2nnc(Cc3ccncc3)c3ccccc23)cc1 [Vatalanib] + COc1cc2c(Oc3ccc(NC(=O)C4(C(=O)Nc5ccc(F)cc5)CC4)cc3F)ccnc2cc1OCCCN1CCOCC1 [Foretinib] (partner 0.25 µM)
0.894

Form: Entry = C[C@@H]1CN(CC(=O)Nc2ccc3c(c2)Cc2cccc(-c4cc(=O)cc(N5CCOCC5)o4)c2S3)C[C@H](C)O1 + CCNC(=O)c1noc(-c2cc(C(C)C)c(O)cc2O)c1-c1ccc(CN2CCOCC2)cc1 [Luminespib] (partner 0.01 µM) | System = NCI-H460 | relative viability = ____
0.0406

Query for NCI-H460: what relative viability does the record show for Clc1ccc(Nc2nnc(Cc3ccncc3)c3ccccc23)cc1 [Vatalanib] + Cc1nc(Nc2ncc(C(=O)Nc3c(C)cccc3Cl)s2)cc(N2CCN(CCO)CC2)n1 [Dasatinib] (partner 0.075 µM) ?
0.498

State its relative viability on NCI-H460: Clc1ccc(Nc2nnc(Cc3ccncc3)c3ccccc23)cc1 [Vatalanib] + CC(=O)Nc1cccc(-n2c(=O)n(C3CC3)c(=O)c3c(Nc4ccc(I)cc4F)n(C)c(=O)c(C)c32)c1 [Trametinib] (partner 0.02 µM)
0.11

Request body: readout relative viability, system NCI-H460, query COc1cc(N2CCC(C(N)=O)CC2)ccc1Nc1nc(N)c(Cl)c(Nc2ccccc2S(=O)(=O)C(C)C)n1 [HG-5-88-01] + CC(C)C[C@H](NC(=O)[C@H](Cc1ccccc1)NC(=O)c1cnccn1)B(O)O [Bortezomib] (partner 0.002 µM) . Return the value.
1.17

Form field - read-out: relative viability; system: NCI-H460; submitted item: COc1cc(N2CCC(C(N)=O)CC2)ccc1Nc1nc(N)c(Cl)c(Nc2ccccc2S(=O)(=O)C(C)C)n1 [HG-5-88-01] + CC(=O)Nc1cccc(-n2c(=O)n(C3CC3)c(=O)c3c(Nc4ccc(I)cc4F)n(C)c(=O)c(C)c32)c1 [Trametinib] (partner 0.02 µM)
0.124

Find relative viability (NCI-H460) for the entry COc1cc(N2CCC(C(N)=O)CC2)ccc1Nc1nc(N)c(Cl)c(Nc2ccccc2S(=O)(=O)C(C)C)n1 [HG-5-88-01] + COc1cccc2cc(-c3nc([C@H]4CC[C@H](C(=O)O)CC4)n4ncnc(N)c34)[nH]c12 [OSI-027] (partner 0.5 µM)
0.655

----------
Provide the recorded relative viability for the entries that follow.
Tested on: EMC-BAC-2
Test: relative viability (nuclei count vs DMSO), 5 days (fraction); higher = more cells survive
Conditions: first compound 0.08 µM
I only need the number, thanks.

Using the record for CCCCCCCCCCCC1=C(O)C(=O)C=C(O)C1=O [Embelin] + Nc1ncn([C@H]2C[C@H](O)[C@@H](CO)O2)c(=O)n1 [Decitabine] (partner 2 µM) , report its relative viability.
0.945

Given the compound CCCCCCCCCCCC1=C(O)C(=O)C=C(O)C1=O [Embelin] + CC(C)C[C@H](NC(=O)[C@H](Cc1ccccc1)NC(=O)c1cnccn1)B(O)O [Bortezomib] (partner 0.002 µM) , what is its reported relative viability?
1.04

GET /values?readout=relative viability&item= CCCCCCCCCCCC1=C(O)C(=O)C=C(O)C1=O [Embelin] + O=C(CCCCCCC(=O)Nc1ccccc1)NO [Vorinostat] (partner 1 µM)
0.344

// query relative viability value for entry CCCCCCCCCCCC1=C(O)C(=O)C=C(O)C1=O [Embelin] + Cc1nc(NC(=O)N2CCC[C@H]2C(N)=O)sc1-c1ccnc(C(C)(C)C(F)(F)F)c1 [Alpelisib] (partner 2 µM)
0.75

Give the measured relative viability of CCCCCCCCCCCC1=C(O)C(=O)C=C(O)C1=O [Embelin] + COc1cccc2cc(-c3nc([C@H]4CC[C@H](C(=O)O)CC4)n4ncnc(N)c34)[nH]c12 [OSI-027] (partner 0.5 µM) .
0.375

Which relative viability reading was recorded for the compound CCCCCCCCCCCC1=C(O)C(=O)C=C(O)C1=O [Embelin] + NC(=O)Nc1cc(-c2cccc(F)c2)sc1C(=O)N[C@H]1CCCNC1 [AZD7762] (partner 0.2 µM) ?
1.12

Item under review: CCCCCCCCCCCC1=C(O)C(=O)C=C(O)C1=O [Embelin] + CS(=O)(=O)CCNCc1ccc(-c2ccc3ncnc(Nc4ccc(OCc5cccc(F)c5)c(Cl)c4)c3c2)o1 [Lapatinib] (partner 2 µM) . Reported relative viability?
0.932
